# System: grafted B16 F0 murine melanoma tumour
# Test Summary: Biodistribution of the ^125I-labelled molecules in the melanoma-bearing mouse (autoradiography of whole-body sections)
# Run Parameters: Ic; 1 H
Where a name gives a salt, the structure may show the parent alone.
Item-by-item account of Biodistribution, Mean, Ic
A bare number is all that is needed in reply.

These recorded examples may help you get a feel for the data.
CCN(CC)CCNC(=O)c1c[nH]c2ccc(I)cc2c1=O [compound 35, dihydrochloride]    52.94
CCN(CC)CCNC(=O)c1cnc2cc(I)ccc2n1.Cl.Cl    15.22
CCN(CC)CCNC(=O)c1cc2c(I)cccc2cn1 [compound 39, dihydrochloride]    42.97
CCCN(CCC)CCCCNC(=O)c1ccc2cc(I)ccc2n1 [compound 49, dihydrochloride]    24.45
CCN(CC)CCNC(=O)c1ccc2cncc(I)c2n1.Cl.Cl    32.83

Turning to the following molecule.
Lookup: Return Biodistribution, Mean, Ic (reported value) for this molecule: CCN(CC)CCNC(=O)c1cccc2cc3cc(I)ccc3nc12 [compound 111, dihydrochloride]
Found: 23.92

* * *

# Tested on: grafted B16 F0 murine melanoma tumour
# Test Summary: Biodistribution of the ^125I-labelled molecules in the melanoma-bearing mouse (autoradiography of whole-body sections)
# Run Parameters: 3 H after i.v. administration, ^125I-labelled compound
Where a name gives a salt, the structure may show the parent alone.
Property: Concentration of radioactivity, liver, Mean (% ID/g)
Field: numeric (% ID/g). Do not append units.

CCN(CC)CCNC(=O)c1cc2cc(I)ccc2[nH]1 [compound 10, hydrochloride]    5.21
CCN(CC)CCNC(=O)c1ccc2cc(I)ccc2c1 [compound 3, hydrochloride]    4.75
CCN(CC)CCNC(=O)c1ccc(I)nc1 [compound 7, dihydrochloride]    3.01
CCN(CC)CCNC(=O)c1nc2ccc(I)cc2[nH]1.Cl.Cl    7.15
CCN(CC)CCNC(=O)c1ccc2cc(I)ccc2n1.Cl.Cl    8.89

Lookup: With grafted B16 F0 murine melanoma tumour as the test system, provide measured Concentration of radioactivity, liver, Mean for this molecule: `CCN(CC)CCNC(=O)c1cc2c(I)cccc2s1.Cl`
Found: 1.25

Lookup: Jot down Concentration of radioactivity, liver, Mean (grafted B16 F0 murine melanoma tumour) of CCN(CC)CCNC(=O)c1nc2ccccn2c1I [compound 16, dihydrochloride] .
Found: 2.56

* * *

# System: grafted B16 F0 murine melanoma tumour
# Test Summary: Biodistribution of the ^125I-labelled molecules in the melanoma-bearing mouse (autoradiography of whole-body sections)
# Run Parameters: thyroid; 72 H
Where a name gives a salt, the structure may show the parent alone.
Property: Biodistribution, Mean, thyroid
Quick one: just the number, no unit, thanks!

A selection of reference data follows.
CCCN(CCC)CCCCNC(=O)c1ccc2cc(I)ccc2n1 [compound 49, dihydrochloride]    53.26
CCN(CC)CCNC(=O)c1cccc2cc3cc(I)ccc3nc12 [compound 111, dihydrochloride]    38.07

Lookup: State its Biodistribution, Mean, thyroid: CCN(CC)CCNC(=O)c1cc2c(I)cccc2cn1 [compound 39, dihydrochloride]
Found: 132.79

Lookup: Answer with reported Biodistribution, Mean, thyroid of CCN(CC)CCNC(=O)c1c[nH]c2ccc(I)cc2c1=O [compound 35, dihydrochloride]
Found: 9.83

* * *

# Test system: grafted B16 F0 murine melanoma tumour
# Test Summary: Biodistribution of the ^125I-labelled molecules in the melanoma-bearing mouse (autoradiography of whole-body sections)
# Run Parameters: 24 H after i.v. administration, ^125I-labelled compound
Structures can show the parent of a compound that is named as a salt.
Property: Concentration of radioactivity, Ic (intestinal contents), Mean (% ID/g)
Dear colleague, please return just the value in % ID/g, with no unit written.

Here's what some known entries look like.
CCN(CC)CCNC(=O)c1cc2cc(I)ccc2[nH]1 [compound 10, hydrochloride]    3.31
CCN(CC)CCNC(=O)c1ccc2cc(I)ccc2c1 [compound 3, hydrochloride]    3.03
CCN(CC)CCNC(=O)c1ccc2cc(I)ccc2n1.Cl.Cl [compound 31]    1.45

Lookup: Determine its reported Concentration of radioactivity, Ic (intestinal contents), Mean: CCN(CC)CCNC(=O)c1nc2ccc(I)cc2[nH]1.Cl.Cl [compound 26]
Found: 3.19

* * *

# Test Summary: Elimination of the molecules: cumulative urinary and faecal excretion 0-72 hours
# Format: in vivo, mouse
# Run Parameters: cumulative excretion 0-72 hours, urine, mice in metabolic cages
Structures can show the parent of a compound that is named as a salt.
Property: Urinary elimination 0-72 hours (Urine)
Report as: number unit

// known answers, use as guide
CCN(CC)CCNC(=O)c1nc2ccc(I)cc2[nH]1.Cl.Cl [compound 26]    17.1%
CCN(CC)CCNC(=O)c1ccc2cc(I)ccc2c1 [compound 3, hydrochloride]    43.7%
CCN(CC)CCNC(=O)c1ccc2cncc(I)c2n1.Cl.Cl [compound 142]    68.9%

Alright, here's another molecule for you.
Lookup: Read the entry CCN(CC)CCNC(=O)c1ccc(I)nc1 [compound 7, dihydrochloride] and write its reported Urinary elimination 0-72 hours (Urine).
Found: 67.3%

* * *

# System: grafted B16 F0 murine melanoma tumour
# Test Summary: Biodistribution of the ^125I-labelled molecules in the melanoma-bearing mouse (autoradiography of whole-body sections)
# Run Parameters: 6 H after i.v. administration, ^125I-labelled compound
Counter-ions that a name gives are not always drawn.
Kindly return Y if reported Concentration of radioactivity, liver, Mean is no lower than 4 % ID/g; return N if it is lower.

CCN(CC)CCNC(=O)c1cc2cc(I)ccc2[nH]1 [compound 10, hydrochloride]    N
CCN(CC)CCNC(=O)c1nc2ccc(I)cc2[nH]1.Cl.Cl    N
CCN(CC)CCNC(=O)c1ccc2cc(I)ccc2n1.Cl.Cl    Y

Lookup: Entry CCN(CC)CCNC(=O)c1ccc2cc(I)ccc2c1 [compound 3, hydrochloride] : is its Concentration of radioactivity, liver, Mean no less than 4 % ID/g?
Found: N

Lookup: Decide: is the reported value of Concentration of radioactivity, liver, Mean for CCN(CC)CCNC(=O)c1ccc(I)nc1 [compound 7, dihydrochloride] equal to or greater than 4 % ID/g?
Found: N

* * *

# Test Summary: Elimination of the molecules: cumulative urinary and faecal excretion 0-72 hours
# Assay type: in vivo, mouse
# Run Parameters: cumulative excretion 0-72 hours, urine + faeces
Structures can show the parent of a compound that is named as a salt.
A collection of compounds and their measured Urinary and faecal elimination 0-72 hours (Total)
The figure you give is taken to be in %; do not add the unit.

CCN(CC)CCNC(=O)c1ccc(I)nc1 [compound 7, dihydrochloride]    72.6
CCN(CC)CCNC(=O)c1cc2c(I)cccc2cn1 [compound 39, dihydrochloride]    71.1
CCN(CC)CCNC(=O)c1cccc2cc3cc(I)ccc3nc12 [compound 111, dihydrochloride]    31.7
CCN(CC)CCNC(=O)c1cccc2c(=O)c3cc(I)ccc3[nH]c12 [compound 84, hydrochloride]    48.8

// below: Urinary and faecal elimination 0-72 hours (Total) requested for another compound
Lookup: Input CCN(CC)CCNC(=O)c1cc2c(I)cccc2s1.Cl [compound 13] , output reported Urinary and faecal elimination 0-72 hours (Total).
Found: 99.3

* * *

Here the recorded Concentration of radioactivity, blood (measured in the heart cavity), Mean is given for each entry.
# Tested on: grafted B16 F0 murine melanoma tumour
# Test Summary: Biodistribution of the ^125I-labelled molecules in the melanoma-bearing mouse (autoradiography of whole-body sections)
# Run Parameters: 6 H after i.v. administration, ^125I-labelled compound
Structures can show the parent of a compound that is named as a salt.
Hi! Could you send only the number? It should be in % ID/g, unit omitted.

Example compounds with recorded Concentration of radioactivity, blood (measured in the heart cavity), Mean:
CCN(CC)CCNC(=O)c1ccc2cc(I)ccc2n1.Cl.Cl    5.91
CCN(CC)CCNC(=O)c1cc2cc(I)ccc2[nH]1 [compound 10, hydrochloride]    0.67
CCN(CC)CCNC(=O)c1ccc(I)nc1 [compound 7, dihydrochloride]    3.71

Lookup: Using known records, supply Concentration of radioactivity, blood (measured in the heart cavity), Mean for CCN(CC)CCNC(=O)c1ccc2cc(I)ccc2c1 [compound 3, hydrochloride]
Found: 1.74

* * *

# System: grafted B16 F0 murine melanoma tumour
# Test Summary: Biodistribution of the ^125I-labelled molecules in the melanoma-bearing mouse (autoradiography of whole-body sections)
# Run Parameters: 3 H after i.v. administration, ^125I-labelled compound
Structures can show the parent of a compound that is named as a salt.
Decision: Concentration of radioactivity, B 16 (tumour), Mean compared against 10 % ID/g; not below it gives condition met, below it gives condition not met.

Worked cases, answers included:
CCN(CC)CCNC(=O)c1ccc(I)nc1 [compound 7, dihydrochloride]    condition not met
CCN(CC)CCNC(=O)c1nc2ccccn2c1I [compound 16, dihydrochloride]    condition not met
CCN(CC)CCNC(=O)c1ccc2cc(I)ccc2c1 [compound 3, hydrochloride]    condition met

Lookup: Concentration of radioactivity, B 16 (tumour), Mean >= 10 % ID/g for `CCN(CC)CCNC(=O)c1ccc2cc(I)ccc2n1.Cl.Cl` ?
Found: condition met

Lookup: Decide: is the reported value of Concentration of radioactivity, B 16 (tumour), Mean for `CCN(CC)CCNC(=O)c1nc2ccc(I)cc2[nH]1.Cl.Cl` equal to or greater than 10 % ID/g?
Found: condition met
